Notes on pIC50 obtained with IGF1-receptor (Homo sapiens, UniProt P08069).
Sequence (P08069 31-1367): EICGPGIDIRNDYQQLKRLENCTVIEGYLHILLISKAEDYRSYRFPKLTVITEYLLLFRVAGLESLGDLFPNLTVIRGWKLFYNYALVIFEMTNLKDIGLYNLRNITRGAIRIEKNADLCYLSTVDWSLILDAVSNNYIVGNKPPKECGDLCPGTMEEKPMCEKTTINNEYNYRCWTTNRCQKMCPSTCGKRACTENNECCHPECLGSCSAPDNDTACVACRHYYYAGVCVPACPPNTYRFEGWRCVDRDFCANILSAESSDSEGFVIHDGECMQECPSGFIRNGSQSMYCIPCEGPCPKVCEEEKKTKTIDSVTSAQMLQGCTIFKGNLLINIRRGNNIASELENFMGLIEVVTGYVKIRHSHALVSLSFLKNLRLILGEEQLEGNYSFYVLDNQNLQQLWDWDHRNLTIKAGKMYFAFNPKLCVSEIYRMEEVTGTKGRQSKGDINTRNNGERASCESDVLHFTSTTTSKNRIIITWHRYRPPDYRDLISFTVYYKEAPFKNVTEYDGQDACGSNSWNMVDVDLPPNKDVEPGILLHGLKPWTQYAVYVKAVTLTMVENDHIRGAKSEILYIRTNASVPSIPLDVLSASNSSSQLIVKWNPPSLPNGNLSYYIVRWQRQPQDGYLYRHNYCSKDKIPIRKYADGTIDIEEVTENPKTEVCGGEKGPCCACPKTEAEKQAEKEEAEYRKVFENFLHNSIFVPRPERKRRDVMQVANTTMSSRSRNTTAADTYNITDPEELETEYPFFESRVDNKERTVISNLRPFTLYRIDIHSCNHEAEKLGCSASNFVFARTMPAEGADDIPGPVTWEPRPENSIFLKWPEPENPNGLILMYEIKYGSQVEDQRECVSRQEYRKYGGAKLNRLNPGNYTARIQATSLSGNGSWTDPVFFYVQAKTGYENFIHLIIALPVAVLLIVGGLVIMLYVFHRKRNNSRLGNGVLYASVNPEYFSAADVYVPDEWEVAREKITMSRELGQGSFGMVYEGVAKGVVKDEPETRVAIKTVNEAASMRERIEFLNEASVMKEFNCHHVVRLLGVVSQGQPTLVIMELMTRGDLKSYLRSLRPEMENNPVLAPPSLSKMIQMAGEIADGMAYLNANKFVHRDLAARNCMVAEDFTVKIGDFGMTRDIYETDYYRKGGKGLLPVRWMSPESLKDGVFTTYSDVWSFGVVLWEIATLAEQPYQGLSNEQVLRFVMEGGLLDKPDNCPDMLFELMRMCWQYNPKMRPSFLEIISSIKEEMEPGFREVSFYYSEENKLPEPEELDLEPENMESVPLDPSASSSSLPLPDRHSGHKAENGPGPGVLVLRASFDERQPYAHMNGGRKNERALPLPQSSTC
pIC50: −log10 of the molar value.
recordedMetric: pIC50

moleculeSmiles	endpointResult
O=C(N[C@H]1CCCN(c2nc(Nc3cc(C4CC4)n[nH]3)nc(N3C[C@H](F)C[C@H]3C(=O)Nc3cnccn3)n2)C1)C1CC1	7.25
CO[C@H]1C[C@@H](C(=O)Nc2ccc(F)nc2)N(c2nc(Nc3cc(C4CC4)n[nH]3)nc(N3CCOCC3)n2)C1	8.70
CN1CCN(c2nc(Nc3cc(C4CC4)[nH]n3)nc(N3C[C@@H](O)C[C@@]3(C)C(=O)Nc3nccs3)n2)CC1	7.36
COCCN1CCN(c2nc(Nc3cc(C4CC4)n[nH]3)nc(N3C[C@@H](O)C[C@H]3C(=O)Nc3cnccn3)n2)CC1	8.70
CN1CCN(c2nc(Nc3cc(C4CC4)n[nH]3)nc(N3[C@H](C(=O)Nc4cnccn4)C[C@@H]4C[C@@H]43)n2)CC1	8.15
CO[C@H]1C[C@@H](C(=O)Nc2cnccn2)N(c2nc(NCCN(C)C)nc(Nc3cc(C4CC4)n[nH]3)n2)C1	8.15

----------
pIC50: −log10 of the molar value.
Notes on pIC50 obtained with IGF1-receptor (Homo sapiens, UniProt P08069).

molecule	pIC50
CO[C@H]1C[C@@H](C(=O)Nc2cnccn2)N(c2nc(Nc3cc(C4CC4)n[nH]3)nc(N3CCN(S(C)(=O)=O)CC3)n2)C1 [Example 46]	8.52
CN1CCN(c2nc(Nc3cc(C4CC4)n[nH]3)nc(N3CC(F)(F)C[C@H]3C(=O)Nc3cnccn3)n2)CC1 [Example 117]	8.15
O=C(Nc1cnccn1)[C@@H]1CC(F)(F)CN1c1nc(Nc2cc(C3CC3)n[nH]2)nc(N2CCN(CCO)CC2)n1 [Example 119]	8.52
